// provenance: PubChem BioAssay (NCI)

- Tested on: OVCAR-5 ovarian
- method description: NCI tumour cell line growth inhibition, 48 h; in the data active = GI50 below about 0.43 µM; inactive = the rest
The reply should be one of these categories: Y = active, N = inactive

O=C(Nc1cccc(-n2cc(-c3ccncc3)c(-c3ccc(Cl)c(O)c3)n2)c1)Nc1ccc(Cl)c(Cl)c1
N
Nc1ncnc2c1ccn2-c1cccc(NC(=O)c2ccc(N3CCOCC3)c(C(F)(F)F)c2)c1
N
CO/C(=C1/NC(=O)C(Cc2ccc(O)c(Br)c2)N(C)C(=O)C(C)NC(=O)CCC/C=C(\C)CCC(C)OC1=O)c1ccccc1 (stereo not given)
Y
O=C(CCN1CCCN(c2cnc3ccccc3n2)CC1)c1csc2ccccc12
N

Would you kindly look at the next entry?
Test call for this molecule, please: "CC/C(=C(/c1ccc(OCCN(C)C)cc1)c1ccc(OC(=O)CCCCCCCCC(=O)c2c(C)[nH]c(/C=C3\N=C(c4ccc[nH]4)C=C3OC)c2C)cc1)c1ccccc1"
N
